tested on: BDF1 mice, M5076 sarcoma ip, median survival T/C; assay: NCI In Vivo Anticancer Drug Screen. Data for tumor model Sarcoma M5076 (intraperitoneal) in B6D2F1 (BDF1) mice; conditions: endpoint: median survival time; dose: 50.0 mg/kg/injection; schedule: Q04DX004 (ip); vehicle: saline; higher = longer survival
Toxic doses and inconclusive results are not listed.
Below: a set of entries, each annotated with reported T/C.
testReadout: T/C

[
  {
    "compound": "COC1N(C2CC(O)C(CO)O2)C(=O)NC(=O)C1(F)Br (centres undefined)",
    "result": "115 % of control"
  },
  {
    "compound": "C1CCC(NC2CCCCC2)CC1",
    "result": "98 % of control"
  },
  {
    "compound": "CC(=O)/C(=C\\c1ccc(Cl)c(Cl)c1)C(=O)CCN(C)C",
    "result": "101 % of control"
  },
  {
    "compound": "CNc1nc(N(C)C)nc(N(C)C)n1",
    "result": "114 % of control"
  }
]

FYI, the data here is from PubChem BioAssay AID286.
